# pIC50 per record follows
molecular target: NRAS WT (Homo sapiens (Human), UniProt P01111+P62937); assay: Ras-Raf disruption/FRET/MOA assay (BRAF RBD, Cyclophilin A); type: biochemical
Sequence (P01111 whole entry): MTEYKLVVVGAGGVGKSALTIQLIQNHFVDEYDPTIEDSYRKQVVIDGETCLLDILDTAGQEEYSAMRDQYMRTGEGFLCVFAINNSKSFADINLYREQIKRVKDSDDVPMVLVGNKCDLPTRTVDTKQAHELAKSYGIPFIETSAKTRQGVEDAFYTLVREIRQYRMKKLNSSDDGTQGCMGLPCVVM
Sequence (P62937 whole entry): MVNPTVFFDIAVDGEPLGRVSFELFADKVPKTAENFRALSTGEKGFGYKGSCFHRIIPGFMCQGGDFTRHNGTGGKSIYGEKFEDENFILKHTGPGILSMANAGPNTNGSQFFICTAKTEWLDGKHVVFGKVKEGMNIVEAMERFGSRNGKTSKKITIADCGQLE
pIC50: −log10 of the molar value.
property_measured: pIC50

sample_smiles | measured_result
CCn1c(-c2cccnc2[C@H](C)OC)c2c3cc(ccc31)-c1cccc(c1)C[C@H](NC(=O)[C@H](C(C)C)N(C)C(=O)[C@@H]1OCC[C@@H]1c1ccccc1)C(=O)N1CCC[C@H](N1)C(=O)OCC(C)(C)C2 | 6.00 to 7.00
CCn1c(-c2cccnc2[C@H](C)OC)c2c3cc(ccc31)-c1csc(n1)C[C@H](NC(=O)[C@H](C(C)C)N(C)C(=O)N1CC[C@@H]3CN(C)C[C@@H]31)C(=O)N1CCC[C@H](N1)C(=O)OCC(C)(C)C2 | 5.00 to 6.00
CCn1c(-c2cccnc2[C@H](C)OC)c2c3cc(ccc31)-c1csc(n1)C[C@H](NC(=O)[C@H](C(C)C)N(C)C(=O)N1CC[C@@]13CCCNC3)C(=O)N1CCC[C@H](N1)C(=O)OCC(C)(C)C2 | 6.00 to 7.00
CCn1c(-c2cccnc2[C@H](C)OC)c2c3cc(ccc31)-c1cc(cc(C(F)F)c1)C[C@H](NC(=O)[C@H](C(C)C)N(C)C(=O)[C@@H]1OCC[C@@H]1c1ccccc1)C(=O)N1CCC[C@H](N1)C(=O)OCC(C)(C)C2 | 5.00 to 6.00
CCn1c(-c2cccnc2[C@H](C)OC)c2c3cc(ccc31)-c1csc(n1)C[C@H](NC(=O)N1CCOCC1)C(=O)N1CCC[C@H](N1)C(=O)OCC(C)(C)C2 | 6.00 to 7.00
CCn1c(-c2cccnc2[C@H](C)OC)c2c3cc(ccc31)-c1cc(O)cc(c1)C[C@H](NC(=O)[C@H](C(C)C)N(C)C(=O)C1(C(=O)O)CC1)C(=O)N1CCC[C@H](N1)C(=O)OCC(C)(C)C2 | 5.00 to 6.00
CO[C@@H](C)c1ncccc1-c1c2c3cc(ccc3n1C)-c1cc(O)cc(c1)C[C@H](NC(=O)[C@H](C(C)C)N(C)C(C)=O)C(=O)N1CCC[C@H](N1)C(=O)OCC(C)(C)C2 | 5.00 to 6.00
CCn1c(-c2cccnc2[C@H](C)OC)c2c3cc(ccc31)-c1csc(n1)C[C@H](NC(=O)[C@H](C(C)C)N(C)C(=O)N(C)C1COC1)C(=O)N1CCC[C@H](N1)C(=O)OCC(C)(C)C2 | 6.00 to 7.00
CCn1c(-c2cccnc2[C@H](C)OC)c2c3cc(ccc31)-c1csc(n1)C[C@H](NC(=O)[C@H](C(C)C)N(C)C(=O)N1CCO[C@H](c3ccccc3)C1)C(=O)N1CCC[C@H](N1)C(=O)OCC(C)(C)C2 | 6.00 to 7.00
CCn1c(-c2cccnc2[C@H](C)OC)c2c3cc(ccc31)-c1csc(n1)C[C@H](NC(=O)[C@H](C(C)C)N(C)C(=O)N1CC(C#N)(N(C)C)C1)C(=O)N1CCC[C@H](N1)C(=O)OCC(C)(C)C2 | 6.00 to 7.00
CCn1c(-c2cccnc2[C@H](C)OC)c2c3cc(ccc31)-c1csc(n1)C[C@H](NC(=O)[C@H](C(C)C)N(C)C(=O)N1CCO[C@@H](CN(C)C)C1)C(=O)N1CCC[C@H](N1)C(=O)OCC(C)(C)C2 | 7.00 to 8.00
CCn1c(-c2cc(N3CCN(C)CC3)cnc2[C@H](C)OC)c2c3cc(ccc31)-c1csc(n1)C[C@H](NC(=O)[C@H](C(C)C)N(C)C(=O)[C@@H]1CCCS1(=O)=O)C(=O)N1CCC[C@H](N1)C(=O)OCC(C)(C)C2 | 6.00 to 7.00
CCn1c(-c2cccnc2[C@H](C)OC)c2c3cc(ccc31)-c1csc(n1)C[C@H](NC(=O)[C@H](C(C)C)N(C)C(=O)N1CCS(=O)(=O)CC1)C(=O)N1CCC[C@H](N1)C(=O)OCC(C)(C)C2 | 6.00 to 7.00
CCn1c(-c2cccnc2[C@H](C)OC)c2c3cc(ccc31)-c1csc(n1)C[C@H](NC(=O)[C@H](C(C)C)N(C)C(=O)N1CCN(C)[C@@H](c3ccccc3)C1)C(=O)N1CCC[C@H](N1)C(=O)OCC(C)(C)C2 | 6.00 to 7.00
CCn1c(-c2cc(N3CCN(C)CC3)cnc2[C@H](C)OC)c2c3cc(ccc31)-c1csc(n1)C[C@H](NC(=O)[C@H](C(C)C)N(C)C(=O)[C@@H]1OCC[C@@H]1c1cccnc1)C(=O)N1CCC[C@H](N1)C(=O)OCC(C)(C)C2 | 6.00 to 7.00
CCn1c(-c2cccnc2[C@H](C)OC)c2c3cc(ccc31)-c1csc(n1)C[C@H](NC(=O)[C@H](C(C)C)N(C)C(=O)N1CCC[C@@H]1CN(C)C)C(=O)N1CCC[C@H](N1)C(=O)OCC(C)(C)C2 | 6.00 to 7.00
CCn1c(-c2cccnc2[C@H](C)OC)c2c3cc(ccc31)-c1csc(n1)C[C@H](NC(=O)[C@H](C(C)C)N(C)C(=O)N1CC[C@H]1CN)C(=O)N1CCC[C@H](N1)C(=O)OCC(C)(C)C2 | 6.00 to 7.00

Sourced from patent US20250195521A1
